System: Liver microsome
Test: Retention time of the compound in mixed human liver microsomes treated with 20(S)-protopanaxadiol at 50 uM after 60 mins by liquid chromatography-electrospray ionization ion trap mass spectrometry
Type: ADME
Settings: 1 h
recordedEndpoint: Retention_time (min)
Provide the reading as a plain figure in min.

- compoundStructure: "CC(C)(O)[C@H]1CC[C@@](C)([C@H]2CC[C@]3(C)[C@@H]2[C@H](O)C[C@@H]2[C@@]4(C)CCC(=O)C(C)(C)[C@@H]4CC[C@]23C)O1"
  targetOfAssay: "Liver microsome"
  Retention_time / min: 19.7
- compoundStructure: "CC(C)(O)[C@@H]1CC[C@@](C)([C@H]2CC[C@]3(C)[C@@H]2[C@H](O)C[C@@H]2[C@@]4(C)CC[C@H](O)C(C)(C)[C@@H]4CC[C@]23C)O1"
  targetOfAssay: "Liver microsome"
  Retention_time / min: 19.2

Reported Retention_time of CC(C)(O)[C@@H]1CC[C@@](C)([C@H]2CC[C@]3(C)[C@@H]2[C@H](O)C[C@@H]2[C@@]4(C)CCC(=O)C(C)(C)[C@@H]4CC[C@]23C)O1 : 19.1

Retention_time reading for CC1(C)O[C@H]1CC[C@](C)(O)[C@H]1CC[C@]2(C)[C@@H]1[C@H](O)C[C@@H]1[C@@]3(C)CC[C@H](O)C(C)(C)[C@@H]3CC[C@]12C : 18.7

# Retention_time of CC(C)(O)[C@H]1CC[C@@](C)([C@H]2CC[C@]3(C)[C@@H]2[C@H](O)C[C@@H]2[C@@]4(C)CC[C@H](O)C(C)(C)[C@@H]4CC[C@]23C)O1 = 19.8

Where these numbers come from: ChEMBL document CHEMBL3525992
